- TARGET_OR_SYSTEM: Estrogen receptor (Rattus norvegicus) (UniProt P06211+Q62986)
- ASSAY_SUMMARY: Estrogenic activity in rat uterine weight assay
- Assay type: functional
REPORTED_PROPERTY: Weight (mg)

Below are worked cases with known answers.
{"columns": ["COMPOUND", "RECORDED_MEASUREMENT"],
 "data": [
  ["COc1ccc2c(c1)CCC(C1CC[C@H](OC(C)=O)[C@@]1(C)CC(=O)NCCCc1ccccc1)C2 (stereo partly specified)", 74.3],
  ["COc1ccc(NC(=O)C[C@@]2(C)C(C3CCc4cc(OC)ccc4C3)CC[C@@H]2OC(C)=O)cc1 (stereo partly specified)", 70.7],
  ["CCCCCCCCCCCCNC(=O)C[C@@]1(C)C(C2CCc3cc(OC)ccc3C2)CC[C@@H]1OC(C)=O (stereo partly specified)", 82.4],
  ["COc1ccc2c(c1)CCC(C1CC[C@H](OC(C)=O)[C@@]1(C)CC(=O)NCCc1ccccc1)C2 (stereo partly specified)", 19]
]}

P: COc1ccc2c(c1)CCC(C1CC[C@H](OC(C)=O)[C@@]1(C)CC(=O)NCc1ccccc1)C2 (stereo partly specified)
Q: COc1ccc2c(c1)CCC(C1CC[C@H](OC(C)=O)[C@@]1(C)CC(=O)Nc1ccccc1)C2 (stereo partly specified)
Prompt line: Larger number for Weight: P , or Q ? Use the label to indicate which entry you chose.
Response line: P

---

- Species: Rattus norvegicus
- ASSAY_SUMMARY: Percent inhibition of ethynylestradiol-induced uterine weight gain in ovariectomized immature rats
- Design: concentration or dose not given beside the values
- ASSAY_CONDITIONS: concentration not given here
REPORTED_PROPERTY: inhibition (%)

{"columns": ["MOLECULE", "UNIT_NAME", "inhibition"],
 "data": [
  ["CCCCCCCCNC(=O)C[C@@]1(C)C(C2CCc3cc(OC)ccc3C2)CC[C@@H]1OC(C)=O (stereo partly specified)", "%", 5.98]
]}

A: CCCNC(=O)C[C@@]1(C)C(C2CCc3cc(OC)ccc3C2)CC[C@@H]1OC(C)=O (stereo partly specified)
B: CCCCCCCCCCCCNC(=O)C[C@@]1(C)C(C2CCc3cc(OC)ccc3C2)CC[C@@H]1OC(C)=O (stereo partly specified)
Prompt line: # query: argmin of inhibition over A and B Use the label to indicate which entry you chose.
Response line: B

1: COc1cccc(NC(=O)C[C@@]2(C)C(C3CCc4cc(OC)ccc4C3)CC[C@@H]2OC(C)=O)c1 (stereo partly specified)
2: COc1ccc2c(c1)CCC(C1CC[C@H](OC(C)=O)[C@@]1(C)CC(=O)NCCCc1ccccc1)C2 (stereo partly specified)
Prompt line: Larger number for inhibition: 1 , or 2 ? Use the label to indicate which entry you chose.
Response line: 1
(1: 15.6%, 2: 10%)

1: COc1ccc(NC(=O)C[C@@]2(C)C(C3CCc4cc(OC)ccc4C3)CC[C@@H]2OC(C)=O)cc1 (stereo partly specified)
2: COc1ccc2c(c1)CCC(C1CC[C@H](OC(C)=O)[C@@]1(C)CC(=O)Nc1ccccc1)C2 (stereo partly specified)
3: COc1ccc2c(c1)CCC(C1CC[C@H](OC(C)=O)[C@@]1(C)CC(=O)NCCc1ccccc1)C2 (stereo partly specified)
Prompt line: // ranking: key=inhibition, reverse=True Submit the labels in the order that the ranking request calls for.
Response line: 1, 2, 3

---

- TARGET_OR_SYSTEM: Estrogen receptor (Rattus norvegicus) (UniProt P06211+Q62986)
- ASSAY_SUMMARY: Estrogenic activity as percent gain in rat uterine weight at 10 mg/kg/day
- Assay type: functional, organism-based
REPORTED_PROPERTY: Gain (%)

P: COc1ccc2c(c1)CCC(C1CC[C@H](OC(C)=O)[C@@]1(C)CC(=O)NCCc1ccccc1)C2 (stereo partly specified)
Q: COc1ccc2c(c1)CCC(C1CC[C@H](OC(C)=O)[C@@]1(C)CC(=O)NCc1ccccc1)C2 (stereo partly specified)
R: CCCCNC(=O)C[C@@]1(C)C(C2CCc3cc(OC)ccc3C2)CC[C@@H]1OC(C)=O (stereo partly specified)
S: COc1ccc2c(c1)CCC(C1CC[C@H](OC(C)=O)[C@@]1(C)CC(=O)Nc1ccccc1)C2 (stereo partly specified)
Prompt line: Order the items by recorded Gain; the first position goes to the largest value. Submit the labels in the order that the ranking request calls for.
Response line: Q, R, P, S

I: COc1ccc2c(c1)CCC(C1CC[C@H](OC(C)=O)[C@@]1(C)CC(=O)NCCCc1ccccc1)C2 (stereo partly specified)
II: COc1ccc(NC(=O)C[C@@]2(C)C(C3CCc4cc(OC)ccc4C3)CC[C@@H]2OC(C)=O)cc1 (stereo partly specified)
III: CCCNC(=O)C[C@@]1(C)C(C2CCc3cc(OC)ccc3C2)CC[C@@H]1OC(C)=O (stereo partly specified)
IV: CCCCCNC(=O)C[C@@]1(C)C(C2CCc3cc(OC)ccc3C2)CC[C@@H]1OC(C)=O (stereo partly specified)
Prompt line: Sort low-to-high on Gain, please. Submit the labels in the order that the ranking request calls for.
Response line: III, IV, II, I
(III: 6.63%, IV: 35.2%, II: 282%, I: 422%)

---

- TARGET_OR_SYSTEM: Estrogen receptor (Rattus norvegicus) (UniProt P06211+Q62986)
REPORTED_PROPERTY: Weight (mg)

{"columns": ["COMPOUND", "Weight, mg"],
 "data": [
  ["CCCNC(=O)C[C@@]1(C)C(C2CCc3cc(OC)ccc3C2)CC[C@@H]1OC(C)=O (stereo partly specified)", 67.2],
  ["CCCCCNC(=O)C[C@@]1(C)C(C2CCc3cc(OC)ccc3C2)CC[C@@H]1OC(C)=O (stereo partly specified)", 75.3],
  ["CCCCCCCCNC(=O)C[C@@]1(C)C(C2CCc3cc(OC)ccc3C2)CC[C@@H]1OC(C)=O (stereo partly specified)", 95.9],
  ["COc1ccc2c(c1)CCC(C1CC[C@H](OC(C)=O)[C@@]1(C)CC(=O)NCc1ccccc1)C2 (stereo partly specified)", 87.7],
  ["COc1ccc(NC(=O)C[C@@]2(C)C(C3CCc4cc(OC)ccc4C3)CC[C@@H]2OC(C)=O)cc1 (stereo partly specified)", 77.5],
  ["CCCCNC(=O)C[C@@]1(C)C(C2CCc3cc(OC)ccc3C2)CC[C@@H]1OC(C)=O (stereo partly specified)", 70.9],
  ["COc1ccc2c(c1)CCC(C1CC[C@H](OC(C)=O)[C@@]1(C)CC(=O)NCCCc1ccccc1)C2 (stereo partly specified)", 83.6],
  ["CCCCCCCCCCCCNC(=O)C[C@@]1(C)C(C2CCc3cc(OC)ccc3C2)CC[C@@H]1OC(C)=O (stereo partly specified)", 90],
  ["COc1ccc2c(c1)CCC(C1CC[C@H](OC(C)=O)[C@@]1(C)CC(=O)Nc1ccccc1)C2 (stereo partly specified)", 69],
  ["COc1cccc(NC(=O)C[C@@]2(C)C(C3CCc4cc(OC)ccc4C3)CC[C@@H]2OC(C)=O)c1 (stereo partly specified)", 86],
  ["COc1ccc2c(c1)CCC(C1CC[C@H](OC(C)=O)[C@@]1(C)CC(=O)NCCc1ccccc1)C2 (stereo partly specified)", 73]
]}

---

- TARGET_OR_SYSTEM: Estrogen receptor (Rattus norvegicus) (UniProt P06211+Q62986)
- ASSAY_SUMMARY: Estrogenic activity in rat uterine weight assay
- Assay type: functional
REPORTED_PROPERTY: Weight (mg)

{"columns": ["COMPOUND", "RECORDED_MEASUREMENT"],
 "data": [
  ["COc1cccc(NC(=O)C[C@@]2(C)C(C3CCc4cc(OC)ccc4C3)CC[C@@H]2OC(C)=O)c1 (stereo not given in full)", 84.9]
]}

A: CCCCCCCCNC(=O)C[C@@]1(C)C(C2CCc3cc(OC)ccc3C2)CC[C@@H]1OC(C)=O (stereo not given in full)
B: CCCNC(=O)C[C@@]1(C)C(C2CCc3cc(OC)ccc3C2)CC[C@@H]1OC(C)=O (stereo not given in full)
Prompt line: # query: argmin of Weight over A and B Use the label to indicate which entry you chose.
Response line: B
(B: 18.7 mg, A: 87 mg)

A: CCCCNC(=O)C[C@@]1(C)C(C2CCc3cc(OC)ccc3C2)CC[C@@H]1OC(C)=O (stereo not given in full)
B: CCCCCNC(=O)C[C@@]1(C)C(C2CCc3cc(OC)ccc3C2)CC[C@@H]1OC(C)=O (stereo not given in full)
Prompt line: # query: argmin of Weight over A and B Use the label to indicate which entry you chose.
Response line: B

---

- Organism: Rattus norvegicus
- ASSAY_SUMMARY: Percent inhibition of ethynylestradiol-induced uterine weight gain in ovariectomized immature rats
- Parameters: concentration or dose not given beside the values
- ASSAY_CONDITIONS: concentration not given here
REPORTED_PROPERTY: inhibition (%)

{"columns": ["MOLECULE", "REPORTED_PROPERTY", "RECORDED_MEASUREMENT"],
 "data": [
  ["CCCCCNC(=O)C[C@@]1(C)C(C2CCc3cc(OC)ccc3C2)CC[C@@H]1OC(C)=O (stereo partly drawn)", "inhibition", 17.2]
]}

1: CCCCNC(=O)C[C@@]1(C)C(C2CCc3cc(OC)ccc3C2)CC[C@@H]1OC(C)=O (stereo partly drawn)
2: COc1ccc2c(c1)CCC(C1CC[C@H](OC(C)=O)[C@@]1(C)CC(=O)NCc1ccccc1)C2 (stereo partly drawn)
Prompt line: # query: argmin of inhibition over 1 and 2 Use the label to indicate which entry you chose.
Response line: 2
(2: 14%, 1: 22.1%)
